Numbers sourced from patent US11566007B2.

- Study Target: NRAS Q61K (Homo sapiens (Human), UniProt P01111+P62937, Q61K)
- Sequence (P01111 whole entry Q61K): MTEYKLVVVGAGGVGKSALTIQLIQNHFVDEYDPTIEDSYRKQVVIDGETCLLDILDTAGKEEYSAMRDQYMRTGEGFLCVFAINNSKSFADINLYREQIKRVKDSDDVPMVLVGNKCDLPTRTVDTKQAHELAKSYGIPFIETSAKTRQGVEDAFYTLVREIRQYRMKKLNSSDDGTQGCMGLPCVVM
- Sequence (P62937 whole entry): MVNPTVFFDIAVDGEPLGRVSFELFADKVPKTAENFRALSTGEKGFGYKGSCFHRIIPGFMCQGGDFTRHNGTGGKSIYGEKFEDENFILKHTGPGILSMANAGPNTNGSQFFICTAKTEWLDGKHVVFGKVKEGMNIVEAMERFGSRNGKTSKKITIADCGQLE
- Protocol Details: Ras-Raf (BRAF RBD) disruption / FRET / MOA assay, NRAS Q61K
- Assay type: biochemical
- Experimental Conditions: NRAS Q61K; Ras-Raf disruption/FRET/MOA assay; read-out: IC50* NRAS Q61K FRET data
pIC50: −log10 of the molar value.
Assay Endpoint: pIC50

Here's what some known entries look like.
Molecule	Study Target	pIC50
C=CC(=O)N1CC[C@H](C(=O)N(C)[C@H](C(=O)N[C@H]2Cc3coc(n3)-c3ccc4c(c3)c(c(-c3cccnc3[C@H](C)OC)n4CC)CC(C)(C)COC(=O)[C@@H]3CCCN(N3)C2=O)C(C)C)C1 (atropisomer, axis not shown)	NRAS Q61K (Homo sapiens (Human), UniProt P01111+P62937, Q61K)	5.00 to 6.00
CCn1c(-c2cccnc2[C@H](C)OC)c2c3cc(ccc31)-c1cccc(c1)C[C@H](NC(=O)[C@@H](COC1CN(C(=O)C#CC(C)(C)N(C)C3CC3)C1)C(C)C)C(=O)N1CCC[C@H](N1)C(=O)OCC(C)(C)C2 (atropisomer, axis not shown)	NRAS Q61K (Homo sapiens (Human), UniProt P01111+P62937, Q61K)	< 5.00
C=CC(=O)N1CC[C@H](C(=O)N(C)[C@H](C(=O)N[C@H]2Cc3nc(ns3)-c3ccc4c(c3)c(c(-c3cccnc3[C@H](C)OC)n4CC)CC(C)(C)COC(=O)[C@@H]3CCCN(N3)C2=O)C(C)C)C1 (atropisomer, axis not shown)	NRAS Q61K (Homo sapiens (Human), UniProt P01111+P62937, Q61K)	5.00 to 6.00
C=CC(=O)N1CC[C@H](C(=O)N(C)[C@H](C(=O)N[C@H]2Cc3cc(O)cc(c3)-c3ccc4c(c3)c(c(-c3ncn(C)c3[C@H](C)OC)n4CC)CC(C)(C)COC(=O)[C@@H]3CCCN(N3)C2=O)C(C)C)C1	NRAS Q61K (Homo sapiens (Human), UniProt P01111+P62937, Q61K)	< 5.00
C=CC(=O)Nc1ncc(C(=O)N(C)[C@H](C(=O)N[C@H]2Cc3cccc(c3)-c3ccc4c(c3)c(c(-c3cccnc3[C@H](C)OC)n4CC)CC(C)(C)COC(=O)[C@@H]3CCCN(N3)C2=O)C(C)C)n1C (atropisomer, axis not shown)	NRAS Q61K (Homo sapiens (Human), UniProt P01111+P62937, Q61K)	5.00 to 6.00
C=CC(=O)N(C)[C@H]1C[C@H](N(C)C(=O)N(C)[C@H](C(=O)N[C@H]2Cc3nc(cs3)-c3ccc4c(c3)c(c(-c3cccnc3[C@H](C)OC)n4CC)CC(C)(C)COC(=O)[C@@H]3CCCN(N3)C2=O)C(C)C)C1 (atropisomer, axis not shown)	NRAS Q61K (Homo sapiens (Human), UniProt P01111+P62937, Q61K)	7.00 to 8.00

IN: Read the entry CCn1c(-c2cccnc2[C@H](C)OC)c2c3cc(ccc31)N1CCO[C@@H](C[C@H](NC(=O)[C@H](C(C)C)N(C)C(=O)[C@@]3(F)CCC(C(=O)C#CC(C)(C)N4CCC4)C3)C(=O)N3CCC[C@H](N3)C(=O)OCC(C)(C)C2)C1 (some centres unmarked) and write its reported pIC50.
OUT: < 5.00

IN: Return pIC50 (reported value) for this molecule: CCn1c(-c2cccnc2[C@H](C)OC)c2c3cc(ccc31)N1CCO[C@@H](C[C@H](NC(=O)[C@H](C(C)C)N(C)C(=O)C3(F)CCN(C(=O)/C=C/CN(C)C)CC3)C(=O)N3CCC[C@H](N3)C(=O)OCC(C)(C)C2)C1 (atropisomer, axis not shown)
OUT: < 5.00
